target: CDK8/Cyclin C (Homo sapiens) (UniProt P49336+P24863); test: Inhibition of human CDK8/Cyc C expressed in Sf21 cells at 1 uM measured after 1 hr by fluorescence plate reader relative to control
reported-metric: inhibition (%)

CCN1CCc2cc(NC(=O)/C=C/c3cnccc3-c3cnn(C)c3)ccc2C1 = 96
CC(C)(F)Cc1ccc(NC(=O)/C=C/c2cncc(F)c2-c2cnn(C3CC3)c2)cc1 = 99
O=C(/C=C/c1cnccc1-c1cnn(C(F)F)c1)Nc1ccc(CN2CCOCC2)cc1 = 98
Cn1cc(-c2ccncc2/C=C/C(=O)Nc2cc(F)c(CN3CCOCC3)cc2F)cn1 = 94
CCN1CCc2ccc(NC(=O)/C=C/c3cnccc3-c3cnn(C)c3)cc2C1 = 99
Cn1cc(-c2ccncc2/C=C/C(=O)Nc2ccc(CN3CC4CCC(C3)O4)cc2)cn1 = 96
O=C(/C=C/c1cncc(F)c1-c1cnn(C2CC2)c1)Nc1ccc2c(c1)OCCO2 = 103
CC(C)(O)Cc1ccc(NC(=O)/C=C/c2cnccc2-c2cnn(C3CC3)c2)cc1 = 100
O=C(/C=C/c1cnccc1-c1cncs1)Nc1ccc(CN2CCOCC2)cc1 = 94
CC1CN(Cc2ccc(NC(=O)/C=C/c3cnccc3-c3cnn(C4CC4)c3)cc2)C1 = 102

###

target: Cyclin-C/Cyclin-dependent kinase 19 (Homo sapiens) (UniProt Q9BWU1+P24863); assay: Inhibition of humanGST-tagged CDK19/Cyc C expressed in Sf21 cells at 1 uM measured after 1 hr by fluorescence plate reader relative to control
reported-metric: inhibition (%)

CCN1CCc2cc(NC(=O)/C=C/c3cnccc3-c3cnn(C)c3)ccc2C1 = 95
O=C(/C=C/c1cnccc1-c1cnn(C2CC2)c1)Nc1ccc(CN2CC3(COC3)C2)cc1 = 98
Cn1cc(-c2ccncc2/C=C/C(=O)Nc2ccc(Cn3ccnc3)cc2)cn1 = 98
Cn1cc(-c2ccncc2/C=C/C(=O)Nc2ccc3c(c2)OCCO3)cn1 = 97
Cn1cc(-c2c(F)cncc2/C=C/C(=O)Nc2ccc(CN3CCOCC3)cc2)cn1 = 100
O=C(/C=C/c1cnccc1-c1ccc2[nH]ncc2c1)Nc1ccc(CN2CCOCC2)cc1 = 97
Cn1cnc2ccc(-c3ccncc3/C=C/C(=O)Nc3ccc(CN4CCOCC4)cc3)cc21 = 102
O=C(/C=C/c1cnccc1-c1cnn(CC2CC2)c1)Nc1ccc(CN2CCOCC2)cc1 = 99
CC(c1ccc(NC(=O)/C=C/c2cnccc2-c2cnn(C)c2)cc1)N1CCOCC1 (stereo not given) = 98
O=C(/C=C/c1cnccc1-c1ccc2[nH]cnc2c1)Nc1ccc(CN2CCOCC2)cc1 = 101

###

biological target: CDK8/Cyclin C (Homo sapiens) (UniProt P49336+P24863); assay: Inhibition of human CDK8/Cyc C expressed in Sf21 cells at 1 uM measured after 1 hr by fluorescence plate reader relative to control
reported-metric: inhibition (%)

O=C(/C=C/c1cnccc1-c1cn[nH]c1)Nc1ccc(CN2CCOCC2)cc1 = 100
COC1CN(Cc2ccc(NC(=O)/C=C/c3cnccc3-c3cnn(C4CC4)c3)cc2)C1 = 101
Cn1cc(-c2ccncc2/C=C/C(=O)Nc2ccc(Oc3ccncc3)cc2)cn1 = 95
O=C(/C=C/c1cnccc1-c1cnn(C2CC2)c1)Nc1ccc2c(c1)CN(CC(F)(F)C(F)(F)F)CC2 = 97
Cn1cc(-c2ccncc2/C=C/C(=O)Nc2cccc(-c3cccnc3)c2)cn1 = 84
CC(C)(O)Cc1ccc(NC(=O)/C=C/c2cncc(F)c2-c2cnn(C3CC3)c2)c(F)c1 = 102
Cn1cc(-c2ccncc2/C=C/C(=O)Nc2ccc(CN3CC(F)(F)C3)cc2)cn1 = 99
O=C(/C=C/c1cnccc1-c1cnn(C2CC2)c1)Nc1ccc(CN2CCOCC2)cc1F = 99
Cn1cc(-c2ccncc2/C=C/C(=O)Nc2ccc(CC#N)cc2)cn1 = 92

###

biological target: CDK8/Cyclin C (Homo sapiens) (UniProt P49336+P24863); assay: Inhibition of human CDK8/Cyc C expressed in Sf21 cells at 1 uM measured after 1 hr by fluorescence plate reader relative to control
reported-metric: inhibition (%)

Cn1cc(-c2ccncc2/C=C/C(=O)Nc2ccc(Cn3cccn3)cc2)cn1 = 102
Cn1cc(-c2ccncc2/C=C/C(=O)Nc2ccc(CNC3CC3)cc2)cn1 = 95
COc1ncc(-c2ccncc2/C=C/C(=O)Nc2ccc(CN3CCOCC3)cc2F)s1 = 99
Cn1cc(-c2ccncc2/C=C/C(=O)Nc2ccc(N3CC(F)(F)C3)cc2)cn1 = 105
Cn1cc(-c2ccncc2/C=C/C(=O)Nc2ccc(CN3CCN4CCCC4C3)cc2)cn1 (stereo unspecified) = 100
CC(=O)n1cc(-c2ccncc2/C=C/C(=O)Nc2ccc(CN3CCOCC3)cc2)cn1 = 96

###

target: CDK8/Cyclin C (Homo sapiens) (UniProt P49336+P24863); assay: Inhibition of human CDK8/Cyc C expressed in Sf21 cells at 1 uM measured after 1 hr by fluorescence plate reader relative to control
reported-metric: inhibition (%)

Cn1cc(-c2ccncc2/C=C/C(=O)Nc2ccc(CN3CCOCC3)c(Cl)c2)cn1 = 99
O=C(/C=C/c1cnccc1-c1cnsc1)Nc1ccc(CN2CCOCC2)cc1 = 90
Cc1ncc(-c2ccncc2/C=C/C(=O)Nc2ccc(CN3CCOCC3)cc2)s1 = 95
O=C(/C=C/c1cncc(F)c1-c1cnn(C2CC2)c1)Nc1ccc(CN2CC3CC(C2)O3)cc1 = 102
O=C(/C=C/c1cnccc1-c1cnn(C2CCC2)c1)Nc1ccc(CN2CCOCC2)cc1 = 96
Cn1cc(-c2ccncc2/C=C/C(=O)Nc2ccc3c(c2)CCO3)cn1 = 96
Cn1cc(-c2ccncc2/C=C/C(=O)Nc2ccc3c(c2)CCC3=O)cn1 = 92
O=C(/C=C/c1cnccc1-c1cnn(CC2(F)CC2)c1)Nc1ccc(CN2CCOCC2)cc1 = 99
Cn1cc(-c2ccncc2/C=C/C(=O)Nc2ccc(CN3CCCC3CO)cc2)cn1 (stereo not given) = 104
CC(C)(F)Cc1ccc(NC(=O)/C=C/c2cnccc2-c2cnn(C3CC3)c2)cc1 = 102

###

molecular target: Cyclin-C/Cyclin-dependent kinase 19 (Homo sapiens) (UniProt Q9BWU1+P24863); assay: Inhibition of humanGST-tagged CDK19/Cyc C expressed in Sf21 cells at 1 uM measured after 1 hr by fluorescence plate reader relative to control
reported-metric: inhibition (%)

Cn1cc(-c2ccncc2/C=C/C(=O)Nc2ccc3c(c2)CCO3)cn1 = 95
Cn1cc(-c2ccncc2/C=C/C(=O)Nc2ccc(CN3CCOCC3)cc2)cn1 = 98
COc1ccsc1-c1ccncc1/C=C/C(=O)Nc1ccc(CN2CCOCC2)cc1 = 100
Cn1cc(-c2ccncc2/C=C/C(=O)Nc2ccc(CNC3CC(F)(F)C3)cc2)cn1 = 97
O=C(/C=C/c1cnccc1-c1cnn(C2CCC2)c1)Nc1ccc(CN2CCOCC2)cc1 = 96

###

target: Cyclin-C/Cyclin-dependent kinase 19 (Homo sapiens) (UniProt Q9BWU1+P24863); assay: Inhibition of humanGST-tagged CDK19/Cyc C expressed in Sf21 cells at 1 uM measured after 1 hr by fluorescence plate reader relative to control
reported-metric: inhibition (%)

COC(C)c1ccc(NC(=O)/C=C/c2cnccc2-c2cnn(C3CC3)c2)cc1 (centres undefined) = 93
COc1ncc(-c2ccncc2/C=C/C(=O)Nc2ccc(CN3CCOCC3)cc2F)s1 = 96
CCn1cc(-c2ccncc2CCC(=O)Nc2ccc(CN3CCOCC3)cc2)cn1 = 85
CC1COCCN1Cc1ccc(NC(=O)/C=C/c2cnccc2-c2cnn(C)c2)cc1 (centres undefined) = 95
Cn1cc(-c2ccncc2/C=C/C(=O)Nc2ccc(CNCC(F)(F)C(F)(F)F)cc2)cn1 = 99
O=C(/C=C/c1cncc(F)c1-c1cnn(C2CC2)c1)Nc1ccc(CN2CCOCC2)cc1F = 96
CC(=O)n1cc(-c2ccncc2/C=C/C(=O)Nc2ccc(CN3CCOCC3)cc2)cn1 = 101
Cn1cc(-c2ccncc2/C=C/C(=O)Nc2ccc3c(c2)CCC3=O)cn1 = 87
Cn1cc(-c2ccncc2/C=C/C(=O)Nc2ccc(N3CCOCC3)c(Cl)c2)cn1 = 100
Cn1cc(-c2ccncc2/C=C/C(=O)Nc2ccc(CN3CCC(F)(F)C3)cc2)cn1 = 100
Cn1cc(-c2ccncc2/C=C/C(=O)Nc2ccc3ncsc3c2)cn1 = 90
Cc1ccc(NC(=O)/C=C/c2cnccc2-c2cn[nH]c2)c(F)c1 = 97
Cn1cc(-c2ccncc2/C=C/C(=O)Nc2ccc3c(c2)CN(CC(F)F)C3)cn1 = 94
Cn1cc(-c2ccncc2/C=C/C(=O)Nc2ccc3ccncc3c2)cn1 = 94
O=C(/C=C/c1cnccc1-c1cnn(C2CC2)c1)Nc1ccc2c(c1)CN(CC(F)(F)CO)C2 = 96
Cn1cc(-c2c(F)cncc2/C=C/C(=O)Nc2ccc3c(c2)CN(CC(C)(F)F)C3)cn1 = 100
O=C(/C=C/c1cnccc1-c1cnn(C2CC2)c1)Nc1ccc(CN2CC(F)(F)C2)cc1F = 74
Cn1ccc2cc(NC(=O)/C=C/c3cnccc3-c3cnn(C4CC4)c3)ccc21 = 97
Cn1cc(-c2ccncc2/C=C/C(=O)Nc2ccc3cc[nH]c3c2)cn1 = 93
Cn1cc(-c2c(F)cncc2/C=C/C(=O)Nc2ccc(CN3CC(F)(F)C3)cc2)cn1 = 102
O=C(/C=C/c1cnccc1-c1cnn(C2CC2)c1)Nc1ccc2c(c1)CCN(CC(F)(F)F)C2 = 98
COCCn1cnc2ccc(-c3ccncc3/C=C/C(=O)Nc3ccc(CN4CCOCC4)cc3)cc21 = 97
COC(C)(C)Cc1ccc(NC(=O)/C=C/c2cnccc2-c2cnn(C3CC3)c2)cc1 = 94
O=C(/C=C/c1cnccc1-c1cnn(C2CC2)c1)Nc1ccc2c(c1)CN(CC(F)(F)F)C2 = 101
Cn1cc(-c2ccncc2/C=C/C(=O)Nc2ccc3c(ccn3C)c2)cn1 = 99
Cn1cc(-c2ccncc2/C=C/C(=O)Nc2ccc3c(c2)CCCC3=O)cn1 = 92
O=C(/C=C/c1cnccc1-c1cnn(CC2CC2)c1)Nc1ccc(CCN2CCOCC2)cc1 = 97
Cn1cc(-c2ccncc2/C=C/C(=O)Nc2cc(F)c(CN3CCOCC3)cc2F)cn1 = 91
CC1CN(Cc2ccc(NC(=O)/C=C/c3cnccc3-c3cnn(C)c3)cc2)CCO1 (centres undefined) = 97
Cn1cc(-c2ccncc2/C=C/C(=O)Nc2ccc(CN3CCOCC3)c(Cl)c2)cn1 = 99
COc1ccc(-c2ccncc2/C=C/C(=O)Nc2ccc(CN3CCOCC3)cc2)s1 = 96
Cn1cc(-c2ccncc2/C=C/C(=O)Nc2ccc3c(c2)CN(CC(F)(F)F)CC3)cn1 = 100
Cc1cc(NC(=O)/C=C/c2cnccc2-c2cnn(C3CC3)c2)ccc1CN1CCOCC1 = 99
O=C(/C=C/c1cnccc1-c1cnsc1)Nc1ccc(CN2CCOCC2)cc1 = 94
Cn1cc(-c2ccc(NC(=O)/C=C/c3cnccc3-c3cnn(C4CC4)c3)cc2)cn1 = 97
O=C(/C=C/c1cnccc1-c1cccs1)Nc1ccc(CCc2nnco2)cc1 = 100
CC(C)(F)Cc1ccc(NC(=O)/C=C/c2cncc(F)c2-c2cnn(C3CC3)c2)cc1 = 101
O=C(/C=C/c1cnccc1-c1cnn2ccccc12)Nc1ccc(CN2CCOCC2)cc1 = 97
C[C@@H]1CN(Cc2ccc(NC(=O)/C=C/c3cnccc3-c3cnn(C)c3)cc2)C[C@H](C)O1 = 97
